Experiment: Acute oral toxicity in mice
Settings: mouse, in vivo, within 14 days

{"smilesNotation": "CCOC(=O)N1CCN(CCCn2c([N+](=O)[O-])cnc2C)CC1", "LD50 at 336 h, mg/kg": 2630}
{"smilesNotation": "CN1CCN(CCCn2cncc2[N+](=O)[O-])CC1", "LD50 at 336 h, mg/kg": 810}
{"smilesNotation": "CN1CCN(CCn2c([N+](=O)[O-])cnc2-c2ccccc2)CC1", "LD50 at 336 h, mg/kg": 3320}
{"smilesNotation": "Cc1ncc([N+](=O)[O-])n1CCCN1CCN(C)CC1", "LD50 at 336 h, mg/kg": 1630}
{"smilesNotation": "CN1CCN(CCn2cncc2[N+](=O)[O-])CC1", "LD50 at 336 h, mg/kg": 880}
{"smilesNotation": "Cc1ncc([N+](=O)[O-])n1CCN1CCN(C)CC1", "LD50 at 336 h, mg/kg": 1700}
{"smilesNotation": "CCN1CCN(CCCn2cncc2[N+](=O)[O-])CC1", "LD50 at 336 h, mg/kg": 900}
{"smilesNotation": "CCc1ncc([N+](=O)[O-])n1CCCN1CCN(C)CC1", "LD50 at 336 h, mg/kg": 1960}
{"smilesNotation": "CCOC(=O)N1CCN(CCCn2cncc2[N+](=O)[O-])CC1", "LD50 at 336 h, mg/kg": 2430}
{"smilesNotation": "CCOC(=O)N1CCN(CCn2cncc2[N+](=O)[O-])CC1", "LD50 at 336 h, mg/kg": 2310}
{"smilesNotation": "CN1CCN(CCCn2c([N+](=O)[O-])cnc2-c2ccccc2)CC1", "LD50 at 336 h, mg/kg": 1680}
{"smilesNotation": "COC(=O)N1CCN(CCCn2c([N+](=O)[O-])cnc2C)CC1", "LD50 at 336 h, mg/kg": 2420}
